Tested on: Glycine max
Assay: Inhibition of soybean 15-lipoxygenase assessed as rate of disappearance of dissolved oxygen at 50 uM relative to control
Set-up: scale not given: the % may be the effect or the level left
Please respond with reported Activity for every item in the list.
Numbers only, in %.

# count of solved cases: 3
| COMPOUND | Activity (%) |
| --- | --- |
| C[C@H](CC[C@@H](O)[C@@H](O)[C@@H](O)CO[C@H]1[C@H](N)[C@@H](O)[C@H](O)[C@@]1(O)CO)[C@H]1CC[C@]2(C)[C@H]3CC[C@@H]4[C@@]5(C)CCCC(C)(C)[C@@H]5CC[C@@]4(C)[C@]3(C)CC[C@@H]12 | 250 |
| CC(=O)OC[C@H](OC(C)=O)[C@H](OC(C)=O)[C@@H](CC[C@@H](C)[C@H]1CC[C@]2(C)[C@H]3CC[C@@H]4[C@@]5(C)CCCC(C)(C)[C@@H]5CC[C@@]4(C)[C@]3(C)CC[C@@H]12)OC(C)=O | 114 |
| C[C@H](CC[C@@H](O)[C@@H](O)[C@@H](O)CO[C@@H]1O[C@H](CO)[C@@H](O)[C@H](O)[C@H]1N)[C@H]1CC[C@]2(C)[C@H]3CC[C@@H]4[C@@]5(C)CCCC(C)(C)[C@@H]5CC[C@@]4(C)[C@]3(C)CC[C@@H]12 | 188 |

Here's the next entry for you.
Supply recorded Activity for C[C@H](CC[C@@H](O)[C@@H](O)[C@@H](O)CO)[C@H]1CC[C@]2(C)[C@H]3CC[C@@H]4[C@@]5(C)CCCC(C)(C)[C@@H]5CC[C@@]4(C)[C@]3(C)CC[C@@H]12 [TETRAHYDROXYBACTERIOHOPANE] here. 4
